target: Platelet-activating factor receptor (Mus musculus); assay: Oral dose required to inhibit PAF-induced mortality (PAF-Antagonistic activity)in mice by 50%.; type: functional; conditions: Mus sp.
TEST READOUT: ID50 (mg/kg)

CC(NCC(=O)N1CCN(C(C#N)c2cccnc2)CC1)c1ccccc1 (stereo not given): 18
N#CC(c1cccnc1)N1CCN(CCC(c2ccccc2)c2ccccc2)CC1 (stereo not given): 15
N#CC(c1cccnc1)N1CCN(C(=O)CCNC(c2ccccc2)c2ccccc2)CC1 (stereo not given): 5.4
N#CC1(Nc2cccnc2)CCN(C(=O)CNC(c2ccccc2)c2ccccc2)CC1: 15

----------
target: Platelet-activating factor receptor (Mus musculus) (UniProt Q62035); assay: Oral dose required to inhibit PAF-induced mortality (PAF-Antagonistic activity)in mice by 50%.; type: functional; conditions: Mus sp.
Sequence (Q62035 whole entry): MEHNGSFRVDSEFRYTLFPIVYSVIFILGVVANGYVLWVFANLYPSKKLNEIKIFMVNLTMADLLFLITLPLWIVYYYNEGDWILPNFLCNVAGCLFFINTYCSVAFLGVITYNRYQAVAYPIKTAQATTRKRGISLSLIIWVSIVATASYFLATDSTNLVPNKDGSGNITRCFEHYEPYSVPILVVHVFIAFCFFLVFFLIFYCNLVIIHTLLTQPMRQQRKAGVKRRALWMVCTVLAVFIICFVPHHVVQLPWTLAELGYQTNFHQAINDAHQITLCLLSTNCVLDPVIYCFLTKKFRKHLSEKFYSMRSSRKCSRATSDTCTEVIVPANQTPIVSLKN
Threshold check on ID50: strictly below 30 mg/kg is 1 (yes); on or above 30 mg/kg is 0 (no).

N#CC(c1cccnc1)N1CCN(CCNC(=O)C(c2ccccc2)c2ccccc2)CC1 (stereo unspecified): 0 (no)
CCCCCCCC(=O)N1CCN(C(C#N)c2cccnc2)CC1 (stereo unspecified): 0 (no)
N#CC(c1cccnc1)N1CCN(C(=O)CNCCC(c2ccccc2)c2ccccc2)CC1 (stereo unspecified): 1 (yes)
COc1cc(C(=O)N2CCN(C(=S)c3cccnc3)CC2)cc(OC)c1OC: 0 (no)
CC(c1cccnc1)N1CCN(C(=O)C(c2ccccc2)c2ccccc2)CC1 (stereo unspecified): 0 (no)
O=C(CC(c1ccccc1)c1ccccc1)N1CCN(Cc2cccnc2)CC1: 0 (no)
N#CC(c1cccnc1)N1CCN(C(=O)CC(c2ccccc2)c2ccccc2)CC1 (stereo unspecified): 1 (yes)
N#CC(c1cccnc1)N1CCN(C(=O)Cc2c[nH]c3ccccc23)CC1 (stereo unspecified): 0 (no)
N#CC(c1cncs1)N1CCN(C(=O)CC(c2ccccc2)c2ccccc2)CC1 (stereo unspecified): 1 (yes)
N#CC(c1cccc([N+](=O)[O-])c1)N1CCN(C(=O)CC(c2ccccc2)c2ccccc2)CC1 (stereo unspecified): 0 (no)
COc1cc(C(=O)N2CCN(C(=O)c3cccnc3)CC2)cc(OC)c1OC: 0 (no)
N#CC(c1cccnc1)N1CCN(C(=O)CCCc2ccccc2)CC1 (stereo unspecified): 0 (no)
N#CC(c1cccc(Cl)c1)N1CCN(C(=O)CC(c2ccccc2)c2ccccc2)CC1 (stereo unspecified): 0 (no)
CN(CC(=O)N1CCN(C(C#N)c2cccnc2)CC1)C(c1ccccc1)c1ccccc1 (stereo unspecified): 1 (yes)
N#CC(c1ccncc1)N1CCN(C(=O)CC(c2ccccc2)c2ccccc2)CC1 (stereo unspecified): 1 (yes)
N#CC(c1cccnc1)N1CCN(C(=O)CNCc2ccccc2)CC1 (stereo unspecified): 0 (no)
N#CC(c1ccncc1)N1CCN(CCNC(c2ccccc2)c2ccccc2)CC1 (stereo unspecified): 1 (yes)
N#CC(c1cccnc1)N1CCN(C(=O)CN(Cc2ccccc2)c2ccccc2)CC1 (stereo unspecified): 0 (no)

----------
biological target: Platelet-activating factor receptor (Mus musculus); test: Oral dose required to inhibit PAF-induced mortality (PAF-Antagonistic activity)in mice by 50%.; type: functional; settings: Mus sp.
Threshold check on ID50: strictly below 40 mg/kg is YES; on or above 40 mg/kg is NO.

CCCCC(=O)N1CCN(C(C#N)c2cccnc2)CC1 (stereo unspecified): NO
Cc1nnc2n1-c1sc(CCC(=O)N3CCOCC3)cc1C(c1ccccc1Cl)=NC2: YES
N#CC(c1cccnc1)N1CCN(C(=O)CNC(c2ccccc2)c2ccccc2)CC1 (stereo unspecified): YES
N#CC(c1cccnc1)C1CCN(C(=O)CNC(c2ccccc2)c2ccccc2)CC1 (stereo unspecified): YES
N#CC(c1cccnc1)N1CCN(C(=O)Cc2ccccc2)CC1 (stereo unspecified): NO
N#CC1(Nc2cccnc2)CCN(C(=O)CC(c2ccccc2)c2ccccc2)CC1: YES
N#CC(c1cccnc1)N1CCN(C(=S)C(c2ccccc2)c2ccccc2)CC1 (stereo unspecified): NO
CC(C(=O)N1CCN(C(C#N)c2cccnc2)CC1)c1ccccc1 (stereo unspecified): NO
N#CC(c1cccnc1)N1CCN(C(=O)CCc2ccccc2)CC1 (stereo unspecified): NO
N#CC(c1cccnc1)N1CCN(C(=O)CNCCCc2ccccc2)CC1 (stereo unspecified): NO
N#CC(c1cccnc1)C1CCN(C(=O)C(c2ccccc2)c2ccccc2)CC1 (stereo unspecified): YES
N#CC(c1cccnc1)N1CCN(C(=O)CC(O)(c2ccccc2)c2ccccc2)CC1 (stereo unspecified): YES
COc1cc(CCC(=O)N2CCN(C(C#N)c3cccnc3)CC2)cc(OC)c1OC (stereo unspecified): NO
N#CC(c1cccnc1)N1CCN(C(=O)C(Cc2ccccc2)c2ccccc2)CC1 (stereo unspecified): NO
N#CC(c1cccnc1)N1CCN(C(=O)/C=C/c2ccccc2)CC1 (stereo unspecified): NO
N#CC(c1cccnc1)N1CCN(C(=O)C(c2ccccc2)c2ccccc2)CC1 (stereo unspecified): YES
